molecular target: D(2) dopamine receptor (Homo sapiens); test: Displacement of [3H]spiperone from human D2 receptor transfected in HEK293 cell membrane measured after 50 mins by competitive radioligand binding analysis
measured.metric: pKi
Friendly reminder that pKi comes from taking -log10 of the concentration in mol/L.

Consider the worked cases shown below.
| compound | measured.number |
| --- | --- |
| COc1ccc(C(=O)NCCCCN2CCO[C@@H]3c4cc(OC)ccc4OC[C@H]32)cc1 (racemic) | 6.16 |
| COc1ccc2c(c1)[C@H]1OCCN(CCCCNC(=O)c3cc4ccccc4[nH]3)[C@@H]1CO2 (racemic) | 6.14 |
| COc1ccc2c(c1)[C@H]1OCCN(CCCCNC(=O)c3ccc4ccccc4c3)[C@@H]1CO2 (racemic) | 6.19 |
| COc1ccc2c(c1)[C@H]1OCCN(CCCCNC(=O)c3cccnc3)[C@@H]1CO2 (racemic) | 6.13 |
| COc1ccc2c(c1)[C@H]1OCCN(CCCCNC(=O)c3cccc(Cl)c3)[C@@H]1CO2 (racemic) | 6.11 |
| O=C(NCCCCN1CCO[C@@H]2c3ccccc3OC[C@H]21)c1ccc(Cl)cc1 (racemic) | 6.33 |

// returns reported pKi for input O=C(NCCCCN1CCO[C@@H]2c3ccccc3OC[C@H]21)c1cccs1 (racemic)
6.38

O=C(NCCCCN1CCO[C@@H]2c3ccccc3OC[C@H]21)c1ccc(-c2ccccc2)cc1 (racemic) , same question.
5.99

O=C(NCCCCN1CCO[C@@H]2c3ccccc3OC[C@H]21)c1ccc(Br)cc1 (racemic) , same question.
6.05

COc1ccc2c(c1)[C@H]1OCCN(CCCCNC(=O)c3ccc(-c4ccccc4)cc3)[C@@H]1CO2 (racemic) , same question.
5.97

COc1ccc2c(c1)[C@H]1OCCN(CCCCNC(=O)c3cccs3)[C@@H]1CO2 (racemic) , same question.
6.10

COc1cc(C(=O)NCCCCN2CCO[C@@H]3c4ccccc4OC[C@H]32)cc(OC)c1OC (racemic) , same question.
6.15

O=C(NCCCCN1CCO[C@@H]2c3ccccc3OC[C@H]21)c1ccc2ccccc2c1 (racemic) , same question.
6.14

COc1ccccc1C(=O)NCCCCN1CCO[C@@H]2c3ccccc3OC[C@H]21 (racemic) , same question.
6.06

====

Catalogue of compounds with associated Ki
target: D(2) dopamine receptor (Homo sapiens); test: Displacement of [3H]spiperone from human D2 receptor transfected in HEK293 cell membrane measured after 50 mins by competitive radioligand binding analysis
I only need the number, in nM, no unit after it.

Consider the worked cases shown below.
| compound | reading.unit | Ki |
| --- | --- | --- |
| O=C(NCCCCN1CCO[C@@H]2c3ccccc3OC[C@H]21)c1cccc(Cl)c1 (racemic) | nM | 663 |
| COc1ccc2c(c1)[C@H]1OCCN(CCCCNC(=O)c3cc(OC)c(OC)c(OC)c3)[C@@H]1CO2 (racemic) | nM | 962 |
| O=C(NCCCCN1CCO[C@@H]2c3ccccc3OC[C@H]21)c1ccccc1 (racemic) | nM | 776 |
| O=C(NCCCCN1CCO[C@@H]2c3ccccc3OC[C@H]21)c1ccc([N+](=O)[O-])cc1 (racemic) | nM | 962 |

Please turn your attention to the following entry.
// returns reported Ki for input O=C(NCCCCN1CCO[C@@H]2c3ccccc3OC[C@H]21)c1cc2ccccc2[nH]1 (racemic)
785

====

target: D(2) dopamine receptor (Homo sapiens, UniProt P14416); test: Displacement of [3H]spiperone from human D2 receptor transfected in HEK293 cell membrane measured after 50 mins by competitive radioligand binding analysis; format: cell membranes
Sequence (P14416 whole entry): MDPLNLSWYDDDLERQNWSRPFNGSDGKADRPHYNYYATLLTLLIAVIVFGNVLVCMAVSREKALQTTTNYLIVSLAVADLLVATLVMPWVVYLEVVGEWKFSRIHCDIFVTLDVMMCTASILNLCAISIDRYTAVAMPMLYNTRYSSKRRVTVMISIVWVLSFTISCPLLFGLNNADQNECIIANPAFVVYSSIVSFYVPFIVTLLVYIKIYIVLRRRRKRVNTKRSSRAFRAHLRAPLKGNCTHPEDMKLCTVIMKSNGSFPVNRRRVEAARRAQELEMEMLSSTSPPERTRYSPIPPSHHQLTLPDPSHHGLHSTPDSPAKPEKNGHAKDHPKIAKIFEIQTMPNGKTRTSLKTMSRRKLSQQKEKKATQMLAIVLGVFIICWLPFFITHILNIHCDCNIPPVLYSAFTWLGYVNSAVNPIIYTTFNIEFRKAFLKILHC
Catalogue of molecules with associated Ki
I only need the number, in nM, no unit after it.

// returns reported Ki for input O=C(NCCCCN1CCO[C@@H]2c3ccccc3OC[C@H]21)c1ccco1 (racemic)
853

CCCN1CCO[C@@H]2c3cc(O)ccc3OC[C@H]21 , same question.
43

COc1ccc2c(c1)[C@H]1OCCN(CCCCNC(=O)c3ccc([N+](=O)[O-])cc3)[C@@H]1CO2 (racemic) , same question.
589

O=C(NCCCCN1CCO[C@@H]2c3ccccc3OC[C@H]21)c1cccc2ccccc12 (racemic) , same question.
563

COc1ccc2c(c1)[C@H]1OCCN(CCCCNC(=O)c3ccc(Br)cc3)[C@@H]1CO2 (racemic) , same question.
958

COc1ccc2c(c1)[C@H]1OCCN(CCCCNC(=O)c3ccccc3)[C@@H]1CO2 (racemic) , same question.
568

COc1ccc(C(=O)NCCCCN2CCO[C@@H]3c4ccccc4OC[C@H]32)cc1 (racemic) , same question.
568

COc1ccc2c(c1)[C@H]1OCCN(CCCCNC(=O)c3ccc(Cl)cc3)[C@@H]1CO2 (racemic) , same question.
967

COc1ccc2c(c1)[C@H]1OCCN(CCCCNC(=O)C3CCCCC3)[C@@H]1CO2 (racemic) , same question.
688

====

molecular target: UniProtKB P14416; assay: Displacement of [3H]spiperone from human D2 receptor transfected in HEK293 cell membrane measured after 50 mins by competitive radioligand binding analysis
measured.metric: Ki

| molecule | Ki |
| --- | --- |
| O=C(NCCCCN1CCO[C@@H]2c3ccccc3OC[C@H]21)C1CCCCC1 (racemic) | 728 nM |
| COc1ccc2c(c1)[C@H]1OCCN(CCCCNC(=O)c3ccco3)[C@@H]1CO2 (racemic) | 923 nM |

Please turn your attention to the following entry.
// returns reported Ki for input COc1ccc2c(c1)[C@H]1OCCN(CCCCNC(=O)c3cccc4ccccc34)[C@@H]1CO2 (racemic)
861 nM
